Species: Rattus norvegicus
Method Notes: Open TG-GATES - Regimen: Daily Repeat
Type: toxicity, organism-based, Sprague-Dawley
Design: regimen Daily Repeat, gender Male, age 6 weeks
Test Context: in vivo, po, 1000 mg/kg, […], tissue Blood, route gavage, dose level High, time 7 day
Endpoint Name: Eos

[
  {
    "Substance Smiles": "O=C(OC[C@H]1O[C@@H](OC(=O)c2cc(O)c(O)c(OC(=O)c3cc(O)c(O)c(O)c3)c2)[C@H](OC(=O)c2cc(O)c(O)c(OC(=O)c3cc(O)c(O)c(O)c3)c2)[C@@H](OC(=O)c2cc(O)c(O)c(OC(=O)c3cc(O)c(O)c(O)c3)c2)[C@@H]1OC(=O)c1cc(O)c(O)c(OC(=O)c2cc(O)c(O)c(O)c2)c1)c1cc(O)c(O)c(OC(=O)c2cc(O)c(O)c(O)c2)c1",
    "Endpoint Name": "Eos",
    "Result": "1%"
  },
  {
    "Substance Smiles": "CCOc1ccc(NC(C)=O)cc1",
    "Endpoint Name": "Eos",
    "Result": "0.4%"
  },
  {
    "Substance Smiles": "COC(=O)C1=C(C)NC(C)=C(C(=O)OC)C1c1ccccc1[N+](=O)[O-]",
    "Endpoint Name": "Eos",
    "Result": "0.8%"
  },
  {
    "Substance Smiles": "CN/C(=N/CCSCc1nc[nH]c1C)NC#N",
    "Endpoint Name": "Eos",
    "Result": "1%"
  },
  {
    "Substance Smiles": "CNC(=C[N+](=O)[O-])NCCSCc1ccc(CN(C)C)o1",
    "Endpoint Name": "Eos",
    "Result": "0.8%"
  },
  {
    "Substance Smiles": "Cc1nnc2n1-c1ccc(Cl)cc1C(c1ccccc1Cl)=NC2",
    "Endpoint Name": "Eos",
    "Result": "1%"
  }
]
